- assayExplanation: molar heat capacity at constant pressure
- measurementConditions: 200 K; 101.33 kPa; Crystal; relaxation calorimetry
endpointName: molar heat capacity at constant pressure (J/K/mol)

[
  {
    "compound": "O[C@H]1[C@H](O)[C@@H](O)[C@H](O)[C@@H](O)[C@H]1O [cis-1,2,3,5-trans-4,6-cyclohexanehexol]",
    "molar heat capacity at constant pressure [J/K/mol]": 145.78
  },
  {
    "compound": "OC[C@@H](O)[C@@H](O)[C@H](O)[C@H](O)CO",
    "molar heat capacity at constant pressure [J/K/mol]": 160.12
  },
  {
    "compound": "OC[C@@H](O)C(O)[C@H](O)CO",
    "molar heat capacity at constant pressure [J/K/mol]": 140.73
  },
  {
    "compound": "OC[C@@H](O)[C@H](O)[C@@H](O)CO",
    "molar heat capacity at constant pressure [J/K/mol]": 142.38
  },
  {
    "compound": "OC[C@@H](O)[C@@H](O)CO",
    "molar heat capacity at constant pressure [J/K/mol]": 115.34
  },
  {
    "compound": "OC[C@H](O)C(O)[C@@H](O)CO [L-(-)-arabitol]",
    "molar heat capacity at constant pressure [J/K/mol]": 142.15
  }
]

###

- assayExplanation: molar heat capacity at constant pressure
- measurementConditions: 323.15 K; 101.33 kPa; Crystal; Small sample (50 mg) DSC
endpointName: molar heat capacity at constant pressure (J/K/mol)

[
  {
    "molecule": "O[C@H]1[C@H](O)[C@@H](O)[C@H](O)[C@@H](O)[C@H]1O [cis-1,2,3,5-trans-4,6-cyclohexanehexol]",
    "molar heat capacity at constant pressure [J/K/mol]": 240.32
  },
  {
    "molecule": "OC[C@@H](O)C(O)[C@H](O)CO",
    "molar heat capacity at constant pressure [J/K/mol]": 222.6
  },
  {
    "molecule": "OC[C@@H](O)[C@@H](O)[C@H](O)[C@H](O)CO",
    "molar heat capacity at constant pressure [J/K/mol]": 252.78
  },
  {
    "molecule": "OC[C@@H](O)[C@@H](O)CO",
    "molar heat capacity at constant pressure [J/K/mol]": 180.24
  },
  {
    "molecule": "OC[C@@H](O)[C@H](O)[C@@H](O)CO",
    "molar heat capacity at constant pressure [J/K/mol]": 230.76
  },
  {
    "molecule": "OC[C@H](O)C(O)[C@@H](O)CO [L-(-)-arabitol]",
    "molar heat capacity at constant pressure [J/K/mol]": 230.47
  }
]

###

- assayExplanation: molar heat capacity at constant pressure
- measurementConditions: 207.15 K; 101.33 kPa; Crystal; Small sample (50 mg) DSC
endpointName: molar heat capacity at constant pressure (J/K/mol)

[
  {
    "compound": "OC[C@@H](O)C(O)[C@H](O)CO",
    "molar heat capacity at constant pressure [J/K/mol]": 139.97
  },
  {
    "compound": "OC[C@@H](O)[C@@H](O)CO",
    "molar heat capacity at constant pressure [J/K/mol]": 116.98
  },
  {
    "compound": "O[C@H]1[C@H](O)[C@@H](O)[C@H](O)[C@@H](O)[C@H]1O [cis-1,2,3,5-trans-4,6-cyclohexanehexol]",
    "molar heat capacity at constant pressure [J/K/mol]": 148.76
  },
  {
    "compound": "OC[C@H](O)C(O)[C@@H](O)CO [L-(-)-arabitol]",
    "molar heat capacity at constant pressure [J/K/mol]": 144.43
  },
  {
    "compound": "OC[C@@H](O)[C@@H](O)[C@H](O)[C@H](O)CO",
    "molar heat capacity at constant pressure [J/K/mol]": 162.47
  },
  {
    "compound": "OC[C@@H](O)[C@H](O)[C@@H](O)CO",
    "molar heat capacity at constant pressure [J/K/mol]": 145.87
  }
]

###

- measurementConditions: 298.15 K; 101.33 kPa; Crystal; relaxation calorimetry
endpointName: molar entropy (J/K/mol)

[
  {
    "compound": "OC[C@@H](O)[C@@H](O)[C@H](O)[C@H](O)CO",
    "measurementUnits": "J/K/mol",
    "molar entropy": 227.01
  },
  {
    "compound": "OC[C@@H](O)[C@@H](O)CO",
    "measurementUnits": "J/K/mol",
    "molar entropy": 165.43
  },
  {
    "compound": "O[C@H]1[C@H](O)[C@@H](O)[C@H](O)[C@@H](O)[C@H]1O [cis-1,2,3,5-trans-4,6-cyclohexanehexol]",
    "measurementUnits": "J/K/mol",
    "molar entropy": 198.12
  },
  {
    "compound": "OC[C@H](O)C(O)[C@@H](O)CO [L-(-)-arabitol]",
    "measurementUnits": "J/K/mol",
    "molar entropy": 201.89
  },
  {
    "compound": "OC[C@@H](O)[C@H](O)[C@@H](O)CO",
    "measurementUnits": "J/K/mol",
    "molar entropy": 198.13
  },
  {
    "compound": "OC[C@@H](O)C(O)[C@H](O)CO",
    "measurementUnits": "J/K/mol",
    "molar entropy": 199.73
  }
]

###

- assayExplanation: molar heat capacity at constant pressure
- measurementConditions: 227.15 K; 101.33 kPa; Crystal; Small sample (50 mg) DSC
endpointName: molar heat capacity at constant pressure (J/K/mol)

[
  {
    "compound": "OC[C@H](O)C(O)[C@@H](O)CO [L-(-)-arabitol]",
    "molar heat capacity at constant pressure / J/K/mol": 157.87
  },
  {
    "compound": "OC[C@@H](O)[C@H](O)[C@@H](O)CO",
    "molar heat capacity at constant pressure / J/K/mol": 159.41
  },
  {
    "compound": "OC[C@@H](O)C(O)[C@H](O)CO",
    "molar heat capacity at constant pressure / J/K/mol": 153.31
  },
  {
    "compound": "O[C@H]1[C@H](O)[C@@H](O)[C@H](O)[C@@H](O)[C@H]1O [cis-1,2,3,5-trans-4,6-cyclohexanehexol]",
    "molar heat capacity at constant pressure / J/K/mol": 164.03
  },
  {
    "compound": "OC[C@@H](O)[C@@H](O)CO",
    "molar heat capacity at constant pressure / J/K/mol": 127.31
  },
  {
    "compound": "OC[C@@H](O)[C@@H](O)[C@H](O)[C@H](O)CO",
    "molar heat capacity at constant pressure / J/K/mol": 177.96
  }
]

###

- assayExplanation: molar heat capacity at constant pressure
- measurementConditions: 315 K; 101.33 kPa; Crystal; Small sample (50 mg) DSC
endpointName: molar heat capacity at constant pressure (J/K/mol)

[
  {
    "compound": "OC[C@@H](O)[C@H](O)[C@@H](O)CO [xylitol]",
    "molar heat capacity at constant pressure (J/K/mol)": 224.06
  },
  {
    "compound": "OC[C@@H](O)[C@@H](O)[C@H](O)[C@H](O)CO [D-mannitol]",
    "molar heat capacity at constant pressure (J/K/mol)": 245.72
  },
  {
    "compound": "O[C@H]1[C@H](O)[C@@H](O)[C@H](O)[C@@H](O)[C@H]1O [cis-1,2,3,5-trans-4,6-cyclohexanehexol]",
    "molar heat capacity at constant pressure (J/K/mol)": 232.85
  },
  {
    "compound": "OC[C@H](O)C(O)[C@@H](O)CO [L-(-)-arabitol]",
    "molar heat capacity at constant pressure (J/K/mol)": 221.96
  },
  {
    "compound": "OC[C@@H](O)[C@@H](O)CO [meso-1,2,3,4-butanetetrol]",
    "molar heat capacity at constant pressure (J/K/mol)": 175.5
  },
  {
    "compound": "OC[C@@H](O)C(O)[C@H](O)CO [D-arabitol]",
    "molar heat capacity at constant pressure (J/K/mol)": 215.3
  }
]

###

- assayExplanation: molar heat capacity at constant pressure
- measurementConditions: 278.15 K; 101.33 kPa; Crystal; Small sample (50 mg) DSC
endpointName: molar heat capacity at constant pressure (J/K/mol)

[
  {
    "molecule": "OC[C@@H](O)[C@H](O)[C@@H](O)CO",
    "endpointName": "molar heat capacity at constant pressure",
    "reported": 194.49
  },
  {
    "molecule": "OC[C@@H](O)C(O)[C@H](O)CO",
    "endpointName": "molar heat capacity at constant pressure",
    "reported": 186.82
  },
  {
    "molecule": "OC[C@H](O)C(O)[C@@H](O)CO [L-(-)-arabitol]",
    "endpointName": "molar heat capacity at constant pressure",
    "reported": 193.84
  },
  {
    "molecule": "OC[C@@H](O)[C@@H](O)[C@H](O)[C@H](O)CO",
    "endpointName": "molar heat capacity at constant pressure",
    "reported": 215.33
  },
  {
    "molecule": "O[C@H]1[C@H](O)[C@@H](O)[C@H](O)[C@@H](O)[C@H]1O [cis-1,2,3,5-trans-4,6-cyclohexanehexol]",
    "endpointName": "molar heat capacity at constant pressure",
    "reported": 202.4
  },
  {
    "molecule": "OC[C@@H](O)[C@@H](O)CO",
    "endpointName": "molar heat capacity at constant pressure",
    "reported": 153.58
  }
]
